Assay: Cell Viability - LYMP1-002 - Assay at 40 hr (AID 994); further: nearly all actives have a fitted effect of over 60% in size; further: potency means the concentration at half of the fitted maximal effect
Conditions: LYMP1-002 lymphoblastoid cell viability; series mostly up to 92.2 µM
Excerpt: NIH Chemical Genomics Center [NCGC] NIH Molecular Libraries Screening Centers Network [MLSCN] National Institutes of Environmental Health Sciences [NIEHS] National Toxicology Program [NTP] We have developed a 1536-well cell-based assay for quantitative high throughput screening (qHTS) against a number of cell lines to determine in vitro cytotoxicity of small molecules. […] 8. Detection; Luminescence; Viewlux plate reader […]
Results filed as inconclusive are left out. Active and inactive are the calls of the source. The call rests on the fitted dose curve; in most records, active means well fitted cell-killing curve with a large enough effect; inconclusive means small, poorly fitted or top-dose-only effect; inactive means flat fitted curve, though single readings scatter.
readout-type: Potency

Answered examples (5):
O=[N+]([O-])c1cc(C(F)(F)F)cc([N+](=O)[O-])c1Cl
inactive
c1ccc2cc3c(cc2c1)-c1cccc2cccc-3c12
inactive
N#CSCSC#N
31.6 µM (active)
O=Nc1ccc(Nc2ccccc2)cc1
12.6 µM (active)
C[C@@H]1CC[C@@]2(OC1)O[C@H]1[C@@H](O)[C@H]3[C@@H]4CC[C@H]5C[C@@H](O[C@@H]6O[C@H](CO)[C@H](O[C@@H]7O[C@H](CO)[C@@H](O)[C@H](O[C@@H]8OC[C@@H](O)[C@H](O)[C@H]8O)[C@H]7O[C@@H]7O[C@H](CO)[C@@H](O)[C@H](O[C@@H]8O[C@H](CO)[C@@H](O)[C@H](O)[C@H]8O)[C@H]7O)[C@H](O)[C@H]6O)[C@H](O)C[C@]5(C)[C@H]4CC[C@]3(C)[C@H]1[C@@H]2C
7.94 µM (active)

(Q) Returns the measured Potency for the input compound. Input: N#CC(Cl)Cl
(A) inactive

(Q) Returns the measured Potency for the input compound. Input: Nc1ccccc1C(=O)OCCc1ccccc1
(A) inactive
